B1: OR4K15 (parent)
chain: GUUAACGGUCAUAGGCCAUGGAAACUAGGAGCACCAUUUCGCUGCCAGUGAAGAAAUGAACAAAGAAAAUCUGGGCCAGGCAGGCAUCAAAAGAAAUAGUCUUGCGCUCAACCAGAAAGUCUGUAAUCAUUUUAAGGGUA

Variants of: B1
assay_details: self-cleavage, relative activity (ratio to wild type); higher = more cleavage; in vitro, sequencing; the parent is a self-cleaving ribozyme
Please mark Met if the recorded self-cleavage is equal to or greater than 0.7, and Not met if it falls below.

INSERT INTO assay_data (mut, discrete_label) VALUES
  ('A60C G123A', 'Met'),
  ('A60U U131C', 'Met'),
  ('A11U A54U', 'Met'),
  ('A5G A66G', 'Met'),
  ('A78C A91C', 'Not met'),
  ('G7U U49C', 'Met'),
  ('C107A U108C', 'Not met'),
  ('U39C', 'Met'),
  ('A64C U103C', 'Not met'),
  ('A11U U127C', 'Met');

Threshold query (self-cleavage >= 0.7) on A4U A56G
Met

Threshold query (self-cleavage >= 0.7) on U49A G74A
Not met

Threshold query (self-cleavage >= 0.7) on U87C U122C
Met

Threshold query (self-cleavage >= 0.7) on A63C C81U
Not met
